System: Acinetobacter baumannii
Assay: Synergistic antibacterial activity against multi-drug resistant Acinetobacter baumannii clinical isolate 43 assessed as inhibition of bacterial growth in presence of polymyxin B by checkerboard assay
Format: functional
measure: MIC (µg/mL)
Value expressed in µg/mL; do not type the unit.

Answered examples (2):
Q) Param item = CCN(CC)c1ccc(/C=C/c2cc(C(C)(C)C)[o+]c(C(C)(C)C)c2)cc1.O=S(=O)([O-])C(F)(F)F ; retrieve measured MIC.
A) 6.25

Q) Param item = CN(C)c1ccc(/C=C/c2cc(C(C)(C)C)[o+]c(C(C)(C)C)c2)cc1.O=S(=O)([O-])C(F)(F)F ; retrieve measured MIC.
A) 12.5

Others:
Q) Param item = CN1CCOc2cc(/C=C/c3cc(C(C)(C)C)[o+]c(C(C)(C)C)c3)ccc21.O=S(=O)([O-])C(F)(F)F ; retrieve measured MIC.
A) 25

Q) Param item = CC(C)(C)c1cc(/C=C/c2ccc(N3CCCC3)cc2)cc(C(C)(C)C)[o+]1.O=S(=O)([O-])C(F)(F)F ; retrieve measured MIC.
A) 6.25

----------
Let's look at some molecules and their measured MIC.
Tested on: Acinetobacter baumannii
Experiment: Antibacterial activity against multi-drug resistant Acinetobacter baumannii clinical isolate 51 assessed as inhibition of bacterial growth by CLSI protocol based method
Format: functional
Value expressed in µg/mL; do not type the unit.

Answered examples (3):
Q) Param item = CC(C)(C)c1cc(/C=C/c2ccc(N3CCCC3)cc2)cc(C(C)(C)C)[o+]1.O=S(=O)([O-])C(F)(F)F ; retrieve measured MIC.
A) 12.5

Q) Param item = CN1CCOc2cc(/C=C/c3cc(C(C)(C)C)[o+]c(C(C)(C)C)c3)ccc21.O=S(=O)([O-])C(F)(F)F ; retrieve measured MIC.
A) 50

Q) Param item = CCN(CC)c1ccc(/C=C/c2cc(C(C)(C)C)[o+]c(C(C)(C)C)c2)cc1.O=S(=O)([O-])C(F)(F)F ; retrieve measured MIC.
A) 12.5

// below: MIC requested for another molecule
Q) Param item = CN(C)c1ccc(/C=C/c2cc(C(C)(C)C)[o+]c(C(C)(C)C)c2)cc1.O=S(=O)([O-])C(F)(F)F ; retrieve measured MIC.
A) 50

----------
System: Acinetobacter baumannii
Test: Synergistic antibacterial activity against multi-drug resistant Acinetobacter baumannii clinical isolate 14 assessed as inhibition of bacterial growth by measuring polymyxin B MIC by checkerboard assay
Format: functional
measure: MIC (ng/mL)
Value expressed in ng/mL; do not type the unit.

Q) Param item = CN1CCOc2cc(/C=C/c3cc(C(C)(C)C)[o+]c(C(C)(C)C)c3)ccc21.O=S(=O)([O-])C(F)(F)F ; retrieve measured MIC.
A) 12

Others:
Q) Param item = CN(C)c1ccc(/C=C/c2cc(C(C)(C)C)[o+]c(C(C)(C)C)c2)cc1.O=S(=O)([O-])C(F)(F)F ; retrieve measured MIC.
A) 6

Q) Param item = CC(C)(C)c1cc(/C=C/c2ccc(N3CCCC3)cc2)cc(C(C)(C)C)[o+]1.O=S(=O)([O-])C(F)(F)F ; retrieve measured MIC.
A) 24

Q) Param item = CCN(CC)c1ccc(/C=C/c2cc(C(C)(C)C)[o+]c(C(C)(C)C)c2)cc1.O=S(=O)([O-])C(F)(F)F ; retrieve measured MIC.
A) 6

----------
Let's look at some compounds and their measured MIC.
Test system: Escherichia coli
Assay: Antibacterial activity against Escherichia coli CG-4 expressing MCR-1 and NDM-1 assessed as inhibition of bacterial growth by CLSI protocol based method
Type: functional
Value expressed in µg/mL; do not type the unit.

Answered examples (4):
Q) Param item = CN(C)c1ccc(/C=C/c2cc(C(C)(C)C)[o+]c(C(C)(C)C)c2)cc1.O=S(=O)([O-])C(F)(F)F ; retrieve measured MIC.
A) 25

Q) Param item = CC(C)(C)c1cc(/C=C/c2ccc(N3CCCC3)cc2)cc(C(C)(C)C)[o+]1.O=S(=O)([O-])C(F)(F)F ; retrieve measured MIC.
A) 6.25

Q) Param item = CCN(CC)c1ccc(/C=C/c2cc(C(C)(C)C)[o+]c(C(C)(C)C)c2)cc1.O=S(=O)([O-])C(F)(F)F ; retrieve measured MIC.
A) 12.5

Q) Param item = NCC[C@H](O)C(=O)N[C@@H]1C[C@H](N)[C@@H](O[C@H]2O[C@H](CN)[C@@H](O)[C@H](O)[C@H]2O)[C@H](O)[C@H]1O[C@H]1O[C@H](CO)[C@@H](O)[C@H](N)[C@H]1O ; retrieve measured MIC.
A) 100

// below: MIC requested for another compound
Q) Param item = CN1CCOc2cc(/C=C/c3cc(C(C)(C)C)[o+]c(C(C)(C)C)c3)ccc21.O=S(=O)([O-])C(F)(F)F ; retrieve measured MIC.
A) 25

----------
System: Escherichia coli
Test: Antibacterial activity against ESBL positive Escherichia coli ATCC 35218 assessed as inhibition of bacterial growth by CLSI protocol based method
Format: functional
Let's look at some compounds and their measured MIC.

Q) Param item = CC(C)(C)c1cc(NC(=O)/C=C/c2cc3ccccc3o2)cc(C(C)(C)C)c1 ; retrieve measured MIC.
A) > 100 µg/mL

Q) Param item = CCCN(CCC)c1ccc(/C=C/c2cc(C(C)(C)C)[o+]c(C(C)(C)C)c2)cc1.O=S(=O)([O-])C(F)(F)F ; retrieve measured MIC.
A) > 100 µg/mL

Q) Param item = CC(C)(C)c1cc(/C=C/c2ccc(N3CCOCC3)cc2)cc(C(C)(C)C)[o+]1.O=S(=O)([O-])C(F)(F)F ; retrieve measured MIC.
A) > 100 µg/mL

Q) Param item = CCOc1ccc(/C=C/c2cc(C(C)(C)C)[o+]c(C(C)(C)C)c2)cc1OC.O=S(=O)([O-])C(F)(F)F ; retrieve measured MIC.
A) > 100 µg/mL

Others:
Q) Param item = NCC[C@H](O)C(=O)N[C@@H]1C[C@H](N)[C@@H](O[C@H]2O[C@H](CN)[C@@H](O)[C@H](O)[C@H]2O)[C@H](O)[C@H]1O[C@H]1O[C@H](CO)[C@@H](O)[C@H](N)[C@H]1O ; retrieve measured MIC.
A) 1.56 µg/mL

Q) Param item = COc1ccc(/C=C/c2cc(C(C)(C)C)[o+]c(C(C)(C)C)c2)c(Cl)c1.O=S(=O)([O-])C(F)(F)F ; retrieve measured MIC.
A) > 100 µg/mL

Q) Param item = CC(C)(C)c1cc(/C=C/c2ccc(N(CCCl)CCCl)cc2)cc(C(C)(C)C)[o+]1.O=S(=O)([O-])C(F)(F)F ; retrieve measured MIC.
A) > 100 µg/mL

Q) Param item = CC(=O)OCCN(CCOC(C)=O)c1ccc(/C=C/c2cc(C(C)(C)C)[o+]c(C(C)(C)C)c2)cc1.O=S(=O)([O-])C(F)(F)F ; retrieve measured MIC.
A) > 100 µg/mL

Q) Param item = CC(C)(C)c1cc(/C=C/c2ccc3c(c2)CCO3)cc(C(C)(C)C)[o+]1.O=S(=O)([O-])C(F)(F)F ; retrieve measured MIC.
A) > 100 µg/mL

Q) Param item = CC(C)Oc1ccc(/C=C/c2cc(C(C)(C)C)[o+]c(C(C)(C)C)c2)cc1.O=S(=O)([O-])C(F)(F)F ; retrieve measured MIC.
A) > 100 µg/mL

----------
Let's look at some molecules and their measured MIC.
System: Escherichia coli
Assay: Antibacterial activity against multi-drug resistant Escherichia coli clinical isolate 1 assessed as inhibition of bacterial growth by CLSI protocol based method
Type: functional

Q) Param item = NCC[C@H](O)C(=O)N[C@@H]1C[C@H](N)[C@@H](O[C@H]2O[C@H](CN)[C@@H](O)[C@H](O)[C@H]2O)[C@H](O)[C@H]1O[C@H]1O[C@H](CO)[C@@H](O)[C@H](N)[C@H]1O ; retrieve measured MIC.
A) > 100 µg/mL

Others:
Q) Param item = CC(C)(C)c1cc(/C=C/c2ccc(N3CCCC3)cc2)cc(C(C)(C)C)[o+]1.O=S(=O)([O-])C(F)(F)F ; retrieve measured MIC.
A) ≥ 100 µg/mL

Q) Param item = CN(C)c1ccc(/C=C/c2cc(C(C)(C)C)[o+]c(C(C)(C)C)c2)cc1.O=S(=O)([O-])C(F)(F)F ; retrieve measured MIC.
A) 100 µg/mL

Q) Param item = CN1CCOc2cc(/C=C/c3cc(C(C)(C)C)[o+]c(C(C)(C)C)c3)ccc21.O=S(=O)([O-])C(F)(F)F ; retrieve measured MIC.
A) ≥ 100 µg/mL

Q) Param item = CCN(CC)c1ccc(/C=C/c2cc(C(C)(C)C)[o+]c(C(C)(C)C)c2)cc1.O=S(=O)([O-])C(F)(F)F ; retrieve measured MIC.
A) ≥ 100 µg/mL

Data provenance is ChEMBL document CHEMBL6109078.
